System: Genetically diabetic db/db mice (C57BL/ksJ Jcl-dbm db/db mice)
Experiment: Blood sugar lowering actions in genetically diabetic mice
Type: in vivo
Conditions: 150 mg/kg oral once daily for 14 days, serum glucose vs control group
measured.endpoint: Reduction in Blood Glucose (%)
Answers are plain numbers, in %.

// solved cases for Reduction in Blood Glucose (%) follow
{"compound": "N#CN=C1NC(=O)/C(=C\\c2ccc(C=Cc3ccccc3)cc2)S1", "Reduction in Blood Glucose (%)": 37}
{"compound": "Cc1c(C)c2c(c(C)c1O)CCC(C)(COc1ccc(CC3SC(=O)NC3=O)cc1)O2 (stereo not shown) [troglitazone, reference compound]", "Reduction in Blood Glucose (%)": 18}
{"compound": "N#CN=C1NC(=O)C(=Cc2ccc(Oc3ccccc3)cc2)S1", "Reduction in Blood Glucose (%)": 34}

Endpoint output: Reduction in Blood Glucose (%) of `N#CN=C1NC(=O)C(=Cc2ccc(COCc3ccccc3)cc2)S1` . Value? 49

###

System: 3T3-L1 preadipocyte cells
Assay: Differentiation-inducing actions on adipose cells (oil red-O staining, absorbance at 490 nm)
Format: cell-based
Details: 3T3-L1, oil red-O extract absorbance at 490 nm, ratio to control group (1.0)
measured.endpoint: Absorbance Ratio

Observe how each entry below is paired with its result.
{"structure.string": "N#CN=C1NC(=O)/C(=C\\c2ccc(C=Cc3ccccc3F)cc2)S1", "experimental.system": "3T3-L1 preadipocyte cells", "Absorbance Ratio": 1.95}
{"structure.string": "CC(=Cc1ccc(/C=C2/SC(=NC#N)NC2=O)cc1)c1ccccc1", "experimental.system": "3T3-L1 preadipocyte cells", "Absorbance Ratio": 2.62}

Please look at the items below and tell me Absorbance Ratio for each one, in order.
1. N#CN=C1NC(=O)/C(=C\c2ccc(C=Cc3ccccc3)cc2)S1
2. N#CN=C1NC(=O)C(=Cc2ccc(OCCCc3ccccc3)cc2)S1
3. N#CN=C1NC(=O)C(=Cc2ccccc2OCCc2ccccc2)S1
4. N#CN=C1NC(=O)C(=Cc2ccc(OCc3ccc(Cl)cc3)cc2)S1

1.46
1.87
2.02
1.51

// each compound listed below needs its Absorbance Ratio
1. N#CN=C1NC(=O)C(=Cc2ccc(Sc3ccccc3)cc2)S1
2. N#CN=C1NC(=O)C(=Cc2ccc(OCCc3ccccc3)cc2)S1
3. N#CN=C1NC(=O)C(=Cc2cccc(OCCc3ccccc3)c2)S1
4. CC(=Cc1ccccc1)c1ccc(/C=C2/SC(=NC#N)NC2=O)cc1
5. N#CN=C1NC(=O)C(=Cc2ccc(COCc3ccccc3)cc2)S1
6. N#CN=C1NC(=O)C(=Cc2ccc(Oc3ccccc3)cc2)S1
7. N#CN=C1NC(=O)C(=Cc2cccc(Oc3ccccc3)c2)S1
8. N#CN=C1NC(=O)C(=Cc2ccc(OCc3ccccc3)cc2)S1

1.93
2.12
1.74
1.57
1.48
1.73
1.18
2.51

###

Test system: db/db mice
Test: Antihyperlipidemic activities in genetically diabetic mice
Format: in vivo
Settings: 150 mg/kg p.o. once daily for 14 days, serum
Field: Reduction Rate (%) Triglycerides. Provide a value for each of the compounds that follow.
Give bare numbers, in %.

Study these solved cases before continuing.
{"structure.string": "N#CN=C1NC(=O)C(=Cc2ccc(Oc3ccccc3)cc2)S1", "Reduction Rate (%) Triglycerides": 65}
{"structure.string": "N#CN=C1NC(=O)C(=Cc2ccc(COCc3ccccc3)cc2)S1", "Reduction Rate (%) Triglycerides": 85}
{"structure.string": "N#CN=C1NC(=O)C(=Cc2ccc(OCc3ccccc3)cc2)S1", "Reduction Rate (%) Triglycerides": 70}
{"structure.string": "N#CN=C1NC(=O)C(=Cc2ccccc2OCCc2ccccc2)S1", "Reduction Rate (%) Triglycerides": 41}

Shift focus to the following entry.
What value of measured Reduction Rate (%) Triglycerides is listed for `N#CN=C1NC(=O)/C(=C\c2ccc(C=Cc3ccccc3)cc2)S1` ? 69

###

Test system: db/db mice
Assay: Antihyperlipidemic activities in genetically diabetic mice
Assay type: in vivo
Conditions: 150 mg/kg p.o. once daily for 14 days, serum
For each of the molecules below, state its Reduction Rate (%) Free Fatty Acids.
Numbers only, in %.

{"structure.string": "N#CN=C1NC(=O)C(=Cc2ccc(OCc3ccccc3)cc2)S1", "result.number": 38}
{"structure.string": "N#CN=C1NC(=O)/C(=C\\c2ccc(C=Cc3ccccc3)cc2)S1", "result.number": 39}
{"structure.string": "N#CN=C1NC(=O)C(=Cc2ccc(Oc3ccccc3)cc2)S1", "result.number": 41}
{"structure.string": "N#CN=C1NC(=O)C(=Cc2ccccc2OCCc2ccccc2)S1", "result.number": 25}

Now, please, on to the next molecule.
Request the reported Reduction Rate (%) Free Fatty Acids associated with `N#CN=C1NC(=O)C(=Cc2ccc(COCc3ccccc3)cc2)S1` 58
